Value source: PubChem BioAssay (NCI)

# Test system: MDA-MB-435 melanoma
# Protocol Notes: NCI-60 one-dose screen, 48 h
# Conditions: 10 µM
Compounds without any hit were thinned out: in the full panel of roughly 83,000, 20% have a hit. The source made the active and inactive calls. The calls were made as follows: active = growth percent below 10; inactive = the rest.
Parameter call: string, one of TRUE = active, FALSE = inactive

Per the records of this test, what outcome belongs to "COc1cccc2c1cc([N+](=O)[O-])c1c(C(=O)O)cc3c(c12)OCO3" ?
FALSE

# iterate: "CC1=C(CN(O)C(N)=O)C2=C(C)C3(CC3)[C@@](C)(O)C(=O)C2=C1"
TRUE

# iterate: "COc1cc2c(cc1OC)[C@@H]1N(CC2)C(=O)c2ccccc2[C@@]1(C)C(=O)O"
FALSE

# iterate: C[C@@H]1C[C@H]2C(=O)O[C@@H](C)C(NC(=O)[C@H](Cc3cc(F)cc(F)c3)NC(=O)Nc3ccc(OS(=O)(=O)F)cc3)C(=O)N3CCC[C@H]3C(=O)N3CCO[C@H](C)[C@H]3C(=O)N[C@@H](CO)C(=O)N2C1 (some centres undefined)
FALSE
